What viability, T/C was measured for each of the following?
System: 299254-011-R-J1-PDC complex spheroids viability
Assay: Anticancer human tumor 299254-011-R-J1-PDC patient-derived melanoma cell line growth inhibition [GQUAD]
Recorded Conditions: second compound 3.16 µM; first compound 1 µM; stronger effect = lower value

Which viability, T/C reading was recorded for the compound O=C(c1cc(Cc2n[nH]c(=O)c3ccccc23)ccc1F)N1CCN(C(=O)C2CC2)CC1 + Cc1[nH]c2ccc(F)cc2c1-c1nc2c3cccnc3c3ncccc3c2[nH]1 ?
87.5%

Which viability, T/C reading was recorded for the compound CC1COCCN1c1cc(-c2ccnn2C)c2ccnc(-c3ccn[nH]3)c2n1 (stereo not given) + Cc1[nH]c2ccc(F)cc2c1-c1nc2c3cccnc3c3ncccc3c2[nH]1 ?
14.5%

Which viability, T/C reading was recorded for the compound CC1COCCN1c1cc(-c2ccnn2C)c2ccnc(-c3ccn[nH]3)c2n1 (stereo not given) + CN(C)c1ccc(Nc2c3ccc(NC(=O)CCN4CCCC4)cc3nc3cc(NC(=O)CCN4CCCC4)ccc23)cc1 ?
24.5%

Which viability, T/C reading was recorded for the compound CCCS(=O)(=O)Nc1ccc(F)c(C(=O)c2c[nH]c3ncc(-c4ccc(Cl)cc4)cc23)c1F + Cc1cnc(CNC(=O)c2c(=O)c3ccc(N4CCCN(C)CC4)nc3n3c2sc2ccccc23)cn1 ?
91.5%

Which viability, T/C reading was recorded for the compound CC1COCCN1c1cc(C2(S(C)(=N)=O)CC2)nc(-c2ccnc3[nH]ccc23)n1 (stereo not given) + CN(C)c1ccc(Nc2c3ccc(NC(=O)CCN4CCCC4)cc3nc3cc(NC(=O)CCN4CCCC4)ccc23)cc1 ?
80.4%

* * *

System: 299254-011-R-J1-PDC complex spheroids viability
Assay: Anticancer human tumor 299254-011-R-J1-PDC cell line growth inhibition [GQUAD]; active = viability on the fitted dose curve at most 10% of control; inactive = the rest;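 further: spheroids exposed to the agents for seven days before readout; percent viability relative to DMSO vehicle control wells = 100%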
Recorded Conditions: second compound 10 µM; first compound 0.1 µM
The reply should be one of these categories: 1 = active, 0 = inactive

What classification did O=C(c1cc(Cc2n[nH]c(=O)c3ccccc23)ccc1F)N1CCN(C(=O)C2CC2)CC1 + Cc1[nH]c2ccc(F)cc2c1-c1nc2c3cccnc3c3ncccc3c2[nH]1 end up with in this test?
0

What classification did CC(C)n1c(=O)n(C)c2cnc3cc(F)c(-c4ccc(OCCCN5CCCCC5)nc4)cc3c21 + CN(C)c1ccc(Nc2c3ccc(NC(=O)CCN4CCCC4)cc3nc3cc(NC(=O)CCN4CCCC4)ccc23)cc1 end up with in this test?
0

What classification did CC(C)n1c(=O)n(C)c2cnc3cc(F)c(-c4ccc(OCCCN5CCCCC5)nc4)cc3c21 + Cc1cnc(CNC(=O)c2c(=O)c3ccc(N4CCCN(C)CC4)nc3n3c2sc2ccccc23)cn1 end up with in this test?
1

* * *

Tested on: 299254-011-R-J1-PDC complex spheroids viability
Assay: Anticancer human tumor 299254-011-R-J1-PDC cell line growth inhibition [GQUAD];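 further: spheroids exposed to the agents for seven days before readout; percent viability relative to DMSO vehicle control wells = 100%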
Recorded Conditions: second compound 10 µM; first compound 0.1 µM; stronger effect = lower value
What viability, T/C was measured for each of the following?
Give the quantity in %, number only.

Return viability, T/C measured with 299254-011-R-J1-PDC complex spheroids viability given this compound: CC1COCCN1c1cc(C2(O)CC3CCC(C2)O3)c2cnn(-c3ccn[nH]3)c2n1 (stereo not given) + Cc1[nH]c2ccc(F)cc2c1-c1nc2c3cccnc3c3ncccc3c2[nH]1
46.9

Return viability, T/C measured with 299254-011-R-J1-PDC complex spheroids viability given this compound: CC1COCCN1c1cc(C2(O)CC3CCC(C2)O3)c2cnn(-c3ccn[nH]3)c2n1 (stereo not given) + CN(C)c1ccc(Nc2c3ccc(NC(=O)CCN4CCCC4)cc3nc3cc(NC(=O)CCN4CCCC4)ccc23)cc1
54

Return viability, T/C measured with 299254-011-R-J1-PDC complex spheroids viability given this compound: Cc1cccc(N(C)C(=O)C2C(O)CCN2c2nc(C)cc(C(F)(F)F)c2C#N)c1 (stereo not given) + CN(C)c1ccc(Nc2c3ccc(NC(=O)CCN4CCCC4)cc3nc3cc(NC(=O)CCN4CCCC4)ccc23)cc1
79.4

Return viability, T/C measured with 299254-011-R-J1-PDC complex spheroids viability given this compound: C=CC(=O)N1CCN(c2nc(=O)n(-c3c(C)ccnc3C(C)C)c3nc(-c4c(O)cccc4F)c(F)cc23)C(C)C1 (stereo not given) + CN(C)c1ccc(Nc2c3ccc(NC(=O)CCN4CCCC4)cc3nc3cc(NC(=O)CCN4CCCC4)ccc23)cc1
74.8

Return viability, T/C measured with 299254-011-R-J1-PDC complex spheroids viability given this compound: COc1ncnc(C2CC2)c1-c1ncc2cnn(Cc3ccc(-c4nc(C(F)(F)F)cn4C(C)C)cc3)c2n1 + Cc1[nH]c2ccc(F)cc2c1-c1nc2c3cccnc3c3ncccc3c2[nH]1
100
